Data credit: PubChem BioAssay (NCI)

tested on: DU-145 prostate; test: NCI tumour cell line growth inhibition, 48 h
QUANTITY_KIND: log10(TGI) (log10 of the value in µM)
Hello, just confirming the data are log10 of TGI with units of µM.

Worked examples, 3 compounds total:
| COMPOUND | QUANTITY_KIND | RECORDED_NUMBER |
| --- | --- | --- |
| CCc1ccc2c(c1)N(CC(C)CN(C)C)c1ccccc1S2 (stereo not drawn) | log10(TGI) | 1.33 |
| CCC1C(c2ccccc2O)c2cc3c(cc2OC1N1CCOCC1)OCO3 (stereo not drawn) | log10(TGI) | 1.45 |
| N/C(=N\OC(=O)c1ccccc1)C(Cc1ccccc1)C(=O)NOC(=O)c1ccccc1 (stereo not drawn) | log10(TGI) | 0.49 |

## Task Give the reported log10(TGI) for this compound. C[C@@H]1Cc2cc(O)ccc2[C@H]2CC[C@]3(C)/C(=C/COCCN(C)C)CC[C@H]3[C@H]12 (tested in a mixture with another compound)
## Result -0.56

## Task Note log10(TGI) for the compound shown: O=c1c2cc(F)ccc2sc2c(NCCCNCCO)nc3ccccc3c12
## Result 0.50

###

test system: SK-OV-3 ovarian; test: NCI tumour cell line growth inhibition, 48 h; in the data active = GI50 below about 0.43 µM; inactive = the rest
Classes to choose from: active, inactive

Please review the following examples before continuing.
| STRUCTURE_SMILES | TARGET_UNDER_TEST | CLASS_ASSIGNMENT |
| --- | --- | --- |
| N#CCCNc1nonc1-c1nc2ccccc2n1CC(=O)c1ccc(NC(=O)[C@@H](N)CCCCN)cc1 | SK-OV-3 ovarian | active |
| COc1ccc(Nc2ccc([N+](=O)[O-])cc2[N+](=O)[O-])cc1CN(CCCl)CCCl | SK-OV-3 ovarian | inactive |
| COc1cc2cc(Oc3ccc(NC(=O)c4ccc(Cl)c(Cl)c4)cc3)c(C)nc2cc1OC | SK-OV-3 ovarian | inactive |
| O=C(Nc1ccccc1OC(=O)c1ccccc1)c1ccccc1 | SK-OV-3 ovarian | inactive |
| FC(F)(F)c1cccc(-c2nn3ncccc3c2-c2ccnc(Nc3ccc4c(c3)OCCO4)n2)c1 | SK-OV-3 ovarian | inactive |
| COC(=O)c1cc(-c2ccc(OC)c(OC)c2)[nH]c1N/N=C/c1c(Cl)cccc1Cl | SK-OV-3 ovarian | inactive |

## Task Hi, do you know how Cc1[nH]c(-c2cc(N)ccc2Cl)c2c1C(=O)CCCC2 came out in this test?
## Result inactive

## Task Name the outcome recorded for COc1cc(C(=O)c2cc(C)c3[nH]c4ccc(O)cc4c3c2C)cc(OC)c1OC in the assay.
## Result active

## Task Which outcome was assigned to COc1cccc(Oc2ccccc2NC(=O)CNC(=O)c2cccc3ccccc23)c1 in this test?
## Result inactive

## Task So what was the verdict on COc1cc(-c2nn(-c3cccc(NC(=O)CCN4CCN(Cc5ccccc5)CC4)c3)cc2-c2ccncc2)ccc1Cl in this test?
## Result inactive

###

system: 786-0 renal; assay: NCI tumour cell line growth inhibition, 48 h
Measured TGI values are reported for all entries that follow.

// solved cases for TGI follow
| COMPOUND | TGI |
| --- | --- |
| CCN(CC)C1Oc2cc3c(cc2C(c2cccc(OC)c2OC)C1C)OCO3 (stereo not drawn) | 22.7 µM |
| COc1ccc(-c2[nH]c3ccccc3c2CCNS(=O)(=O)c2ccc(C)cc2)cc1 | > 10 µM |
| CC(C)/C(Cl)=N/OC(=O)Nc1ccc(Cl)c(Cl)c1 | 3.46 µM |

## Task State TGI on 786-0 renal. Entry: c1ccc(CC2COC(c3cccs3)=N2)cc1 (stereo not drawn)
## Result > 100 µM

## Task Quote 786-0 renal TGI for entry COc1cc(/C=C/c2ccc3c(Br)cc(Br)c(O)c3n2)ccc1O .
## Result 6.93 µM

## Task Using 786-0 renal as the test system, report measured TGI of C=C1CC[C@@H](C)[C@](C)(CCc2ccoc2)C/C=C\C=C/1C(=O)O .
## Result > 100 µM

## Task Print 786-0 renal TGI for COc1ccc(-c2cc(=O)c3c(O)cccc3o2)c(OC)c1OC .
## Result > 100 µM

## Task Identify measured TGI obtained with 786-0 renal for O=C(O)CCNS(=O)(=O)c1ccc([N+](=O)[O-])cc1 .
## Result > 100 µM

## Task // fetch TGI for N/C(=N\OC(=O)c1ccccc1)C(Cc1ccccc1)C(=O)NOC(=O)c1ccccc1 (stereo not drawn) ; system: 786-0 renal
## Result 8 µM

## Task Fetch value of TGI on 786-0 renal for Cc1cc2c(c(C(N)=O)c1C)-c1cc(Cl)cc(Cl)c1C2=O .
## Result > 100 µM

## Task Provide TGI, system 786-0 renal, entry COc1cc(CNc2nc3ccccc3nc2C(=O)O)cc(OC)c1OC
## Result > 100 µM

## Task Provide 786-0 renal TGI reading for Nc1ncnc2c1ncn2[C@@H]1O[C@H](COC(c2ccccc2)(c2ccccc2)c2ccccc2)[C@@H](OC(=S)Oc2ccccc2)[C@@H]1F .
## Result 15.9 µM

## Task State TGI on 786-0 renal. Entry: COc1cc2ncc3c(nc4sccn43)c2cc1OC
## Result 40.2 µM

## Task Jot down TGI (786-0 renal) of C[N+](C)(C)c1ncnc2c1ncn2C1CCCO1 (stereo not drawn) .
## Result > 100 µM

## Task // fetch TGI for CC(=O)O[C@@H]1C[C@@]2(C)[C@@H]3CC=C4[C@@H](C[C@H](O)C(=O)C4(C)C)[C@]3(C)C(=O)C[C@]2(C)[C@H]1[C@@](C)(O)C(=O)/C=C/C(C)(C)OC(C)=O ; system: 786-0 renal
## Result > 70.4 µM

## Task Param request: TGI | system 786-0 renal | item O=C(NNS(=O)(=O)c1ccc(Cl)cc1Cl)c1cccnc1Nc1ccc(Cl)cc1
## Result 49.4 µM
